System under test: T1, recombinant cynomolgus TREM2 ECD (cynomolgus, UniProt A0A2K5UY34 49-204)
T1 construct: extracellular domain; also called cyno TREM2
T1 sequence: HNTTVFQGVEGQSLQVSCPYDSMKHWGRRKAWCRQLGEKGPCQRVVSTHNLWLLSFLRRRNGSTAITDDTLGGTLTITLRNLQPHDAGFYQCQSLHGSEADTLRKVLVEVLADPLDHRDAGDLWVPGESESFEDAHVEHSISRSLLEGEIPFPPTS
Experimental details: SPR (Biacore), cynomolgus TREM2
Parameter measured: pKd
Bear in mind: pKd is minus log10 of a mol/L concentration; give just that figure.

Problem: // returns reported pKd for input CL0020123-5 (antibody, V domains shown, Humanized variant of CL0020123) VH: QVQLVQSGAEVKKPGASVKVSCKASGFSIEDFYIHWVRQAPGQGLEWMGWIDPEQGESKYAPKFQGRATITADTSTSTAYMELSSLRSEDTAVYYCHADHGNYGSTMDYWGQGTLVTVSS VL: DIQMTQSPSSLSASVGDRVTITCHASQHINVWLSWYQQKPGKAPKLLIYKASNLHTGVPSRFSGSGSGTDFTLTISSLQPEDFATYYCQQGQTYPRTFGQGTKVEIK
Solution: 8.03

Problem: // returns reported pKd for input CL0020123-7 (antibody, V domains shown, Humanized variant of CL0020123) VH: QVQLVQSGAEVKKPGASVKVSCKASGFSIEDFYIHWVRQAPGQGLEWMGWIDPENGESKYAPKFQGRVTITADTSTSTAYMELSSLRSEDTAVYYCHADHGNYGSTMDYWGQGTLVTVSS VL: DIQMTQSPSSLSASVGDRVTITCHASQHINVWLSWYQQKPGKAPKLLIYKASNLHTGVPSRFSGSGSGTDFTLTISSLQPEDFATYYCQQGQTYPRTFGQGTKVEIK
Solution: 8.03
